system: T47D; assay: Antiproliferative activity against human T47D cells after 48 hrs by MTT assay
assay_endpoint: IC50 (µM)
Only the number, expressed in µM, is required.

>>> df
                                   molecule  assay_endpoint  value_measured
0  O=c1[nH]c2c(c(=O)[nH]1)C(c1cc3ccccc3n1Cc1ccccc1)c1c([nH]c(=O)[nH]c1=O)O2            IC50            22.1
1  CC1(C)CC(=O)C2=C(C1)OC1=C(C(=O)CCC1)C2c1cc2ccccc2n1Cc1ccccc1 (stereo not given)            IC50            23.5
2  CC1CC(=O)C2=C(C1)OC1=C(C(=O)CC(C)(C)C1)C2c1cc2ccccc2n1Cc1ccccc1 (stereo not given)            IC50            19.8
3  CC1(C)CCC(=O)C2=C1OC1=C(C(=O)CCC1)C2c1cc2ccccc2n1Cc1ccccc1 (stereo not given)            IC50            16.5

Given item O=C1CCC2=C1C(c1cc3ccccc3n1Cc1ccccc1)C1=C(CCC1=O)O2 , the value recorded as its IC50 is 25

IC50 for CC1CC(=O)C2=C(C1)OC1=C(C(=O)CCC1)C2c1cc2ccccc2n1Cc1ccccc1 (stereo not given) is 17.9

What the record says about CC1(C)CC(=O)C2=C(C1)OC1=C(C(=O)CCC1(C)C)C2c1cc2ccccc2n1Cc1ccccc1 (stereo not given) : IC50 is 19.3

The molecule listed as Cc1c(-c2ccc(O)cc2)n(Cc2ccc(OCCN3CCCCCC3)cc2)c2ccc(O)cc12 shows IC50 equal to 16.4

Notebook: CC1(C)CC(=O)C2=C(C1)OC1=C(C(=O)CC(C)(C)C1)C2c1cc2ccccc2n1Cc1ccccc1 , IC50 read as 24.6

Please fill in: IC50 reported for CC1CC(=O)C2=C(C1)OC1=C(C(=O)CCC1(C)C)C2c1cc2ccccc2n1Cc1ccccc1 (stereo not given) = 20.9

====

# IC50 per entry
target: Estrogen receptor (Homo sapiens, UniProt P03372); test: Displacement of Fluormone-tagged ES2 from human recombinant ERalpha after 2 hrs by fluorescence polarization assay
Sequence (P03372 whole entry): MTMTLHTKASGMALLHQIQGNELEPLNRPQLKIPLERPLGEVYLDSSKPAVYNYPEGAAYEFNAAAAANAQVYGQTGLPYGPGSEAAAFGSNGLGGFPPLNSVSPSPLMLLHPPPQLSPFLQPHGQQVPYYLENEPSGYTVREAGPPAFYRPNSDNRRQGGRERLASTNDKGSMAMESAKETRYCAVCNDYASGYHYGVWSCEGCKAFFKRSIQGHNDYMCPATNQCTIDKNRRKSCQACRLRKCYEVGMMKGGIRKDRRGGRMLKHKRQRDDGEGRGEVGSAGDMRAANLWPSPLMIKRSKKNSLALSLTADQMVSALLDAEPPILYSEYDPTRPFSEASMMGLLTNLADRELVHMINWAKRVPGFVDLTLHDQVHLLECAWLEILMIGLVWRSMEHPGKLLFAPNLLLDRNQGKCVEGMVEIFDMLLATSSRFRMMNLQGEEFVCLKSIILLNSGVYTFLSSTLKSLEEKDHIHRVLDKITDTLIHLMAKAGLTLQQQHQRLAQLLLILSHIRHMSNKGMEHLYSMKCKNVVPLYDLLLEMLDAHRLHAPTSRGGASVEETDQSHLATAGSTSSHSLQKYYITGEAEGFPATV
Expressed in nM, but write only the number.

# count of solved cases: 4
                                   molecule  assay_endpoint  value_measured
0  CC1CC(=O)C2=C(C1)OC1=C(C(=O)CC(C)(C)C1)C2c1cc2ccccc2n1Cc1ccccc1 (stereo not given)            IC50            26.6
1  CC1CC(=O)C2=C(C1)OC1=C(C(=O)CCC1(C)C)C2c1cc2ccccc2n1Cc1ccccc1 (stereo not given)            IC50             356
2  CC1CC(=O)C2=C(C1)OC1=C(C(=O)CC(C)C1)C2c1cc2ccccc2n1Cc1ccccc1 (stereo not given)            IC50             482
3  O=C1CCC2=C1C(c1cc3ccccc3n1Cc1ccccc1)C1=C(CCC1=O)O2            IC50            51.2

The measured IC50 associated with O=c1[nH]c2c(c(=O)[nH]1)C(c1cc3ccccc3n1Cc1ccccc1)c1c([nH]c(=O)[nH]c1=O)O2 reads 61.1

====

Recorded IC50, one value per entry.
molecular target: Estrogen receptor (Homo sapiens); test: Displacement of Fluormone-tagged ES2 from human recombinant ERalpha after 2 hrs by fluorescence polarization assay
Reply with just the number (in µM).

compound CC1(C)CCC(=O)C2=C1OC1=C(C(=O)CCC1)C2c1cc2ccccc2n1Cc1ccccc1 (stereo not given) , IC50 observed: 0.055

Quick note, IC50 for CC1CC(=O)C2=C(C1)OC1=C(C(=O)CCC1)C2c1cc2ccccc2n1Cc1ccccc1 (stereo not given) landed at 0.0166

What the record says about CC1(C)CC(=O)C2=C(C1)OC1=C(C(=O)CCC1(C)C)C2c1cc2ccccc2n1Cc1ccccc1 (stereo not given) : IC50 is 0.587

Reported IC50 for CC1(C)CC(=O)C2=C(C1)OC1=C(C(=O)CCC1)C2c1cc2ccccc2n1Cc1ccccc1 (stereo not given) was 0.0184

Please fill in: IC50 reported for CC1(C)CC(=O)C2=C(C1)OC1=C(C(=O)CC(C)(C)C1)C2c1cc2ccccc2n1Cc1ccccc1 = 0.0608
